The compounds below have reported log10 Ki for Serine protease 1 (Bos taurus).
The base-10 logarithm of Ki, taken with Ki in µM, is what appears here.

{"compound": "N=C(N)c1cc2cc(-c3cc(Cl)cc(Cl)c3O)[nH]c2cc1Cl", "metric": "log10 Ki", "observed": 0.98}
{"compound": "N=C(N)c1ccc2nc(-c3cccc(OC4CCCC4)c3O)[nH]c2c1 [CA-06]", "metric": "log10 Ki", "observed": -0.14}
{"compound": "N=C(N)c1ccc(NC(=O)c2ccccc2O)cc1", "metric": "log10 Ki", "observed": 0.51}
{"compound": "[H]/N=C(/N)c1ccc(NC(=O)c2cc(C)cc(I)c2O)cc1Cl", "metric": "log10 Ki", "observed": 2.04}
{"compound": "Cc1cc(I)c(O)c(C(=O)Nc2ccc(C(=N)N)c(F)c2)c1", "metric": "log10 Ki", "observed": 0.45}

Next item in the queue.
Supply log10 Ki measured with Serine protease 1 (Bos taurus) for N=C(N)c1ccc2[nH]c(-c3cc(Cl)cc(Cl)c3O)cc2c1 . -0.07

----------
experimental_system: Urokinase-type plasminogen activator (Homo sapiens)
method_summary: Enzyme Assay and Determination of the Inhibition Constants
assay_context: pH 7.4; 22 °C
metric: Ki

Below: 3 molecules and their reported Ki.
{"cpd_smiles": "N=C(N)c1cc2[nH]c(-c3cccc(-c4ccccc4)c3O)nc2cc1Cl", "observed": "2100 nM"}
{"cpd_smiles": "Cc1cc(Br)c(O)c(C(=O)Nc2ccc(C(=N)N)cc2)c1", "observed": "77 nM"}
{"cpd_smiles": "CC(C)COc1cccc(-c2nc3cc(Cl)c(C(=N)N)cc3[nH]2)c1O", "observed": "1800 nM"}

Dear colleague, please send me the reported Ki for CC(C)COc1cccc(-c2nc3ccc(C(=N)N)cc3[nH]2)c1O when you can. 500 nM

# return recorded Ki for entry C[C@H]1CCCC[C@@H]1Oc1cccc(-c2cc3cc(C(=N)N)c(F)cc3[nH]2)c1O 11 nM

Read the entry N=C(N)c1cc2cc(-c3cc(Cl)cc(Cl)c3O)[nH]c2cc1Cl and write its reported Ki. 310 nM

Respond only with Ki recorded for N=C(N)c1cc2nc(-c3cccc(-c4ccccc4)c3O)[nH]c2cc1F 590 nM

Supply measured Ki of N=C(N)c1ccc2[nH]c(-c3cc(Cl)cc(Cl)c3O)cc2c1 in your reply. 200 nM

----------
experimental_system: Prothrombin (Homo sapiens)
Rule for this label: TRUE means Ki is less than 0.5 µM; FALSE means Ki is at least 0.5 µM.

A selection of reference data follows.
{"cpd_smiles": "N=C(N)c1ccc2[nH]c(-c3cc(Cl)cc(Cl)c3O)cc2c1", "class": "TRUE"}
{"cpd_smiles": "Cc1cc(Br)c(O)c(C(=O)Nc2ccc(C(=N)N)cc2)c1", "class": "TRUE"}
{"cpd_smiles": "Cc1cc(I)c(O)c(C(=O)Nc2ccc(C(=N)N)cc2)c1", "class": "FALSE"}

Quick check: Ki of N=C(N)c1ccc(NC(=O)c2ccccc2O)cc1 under 0.5 µM? FALSE

Is 0.5 µM strictly greater than the molecule's reported Ki? molecule: N=C(N)c1cc2cc(-c3cc(Cl)cc(Cl)c3O)[nH]c2cc1Cl FALSE

# strict comparison: is reported Ki < 0.5 µM? input = [H]/N=C(/N)c1ccc(NC(=O)c2cc(C)cc(I)c2O)cc1Cl FALSE

Confirm or reject: Ki of N=C(N)c1ccc2nc(-c3cccc(OC4CCCC4)c3O)[nH]c2c1 lies strictly below 0.5 µM FALSE

I wonder whether Cc1cc(I)c(O)c(C(=O)Nc2ccc(C(=N)N)c(F)c2)c1 has Ki below 0.5 µM. Can you tell? TRUE

Taken from BindingDB's records for doi:10.1016/S1074-5521(01)00084-9.
